Test system: hiPSC-CMs (iCell-Cardiomyocytes^2)
Conditions: 3 µM; 48h
MEASURED_PROPERTY: BR (beating rate), % change from baseline (%)

- COMPOUND: "CC(=O)Oc1ccccc1C(=O)O"
  RESULT_NUMBER: -7
- COMPOUND: "CC1(C)S[C@@H]2[C@H](NC(=O)[C@H](N)c3ccc(O)cc3)C(=O)N2[C@H]1C(=O)O"
  RESULT_NUMBER: 2
- COMPOUND: "COc1nc(N)nc2c1ncn2[C@@H]1O[C@H](COP(=O)(N[C@@H](C)C(=O)OCC(C)(C)C)Oc2cccc3ccccc23)[C@@H](O)[C@@]1(C)O (stereo partly shown)"
  RESULT_NUMBER: 13
- COMPOUND: "O=C(O)COCCN1CCN(C(c2ccccc2)c2ccc(Cl)cc2)CC1 (stereo not shown)"
  RESULT_NUMBER: -5

1. CC(C)(Sc1cc(C(C)(C)C)c(O)c(C(C)(C)C)c1)Sc1cc(C(C)(C)C)c(O)c(C(C)(C)C)c1
2. C[C@H](CS)C(=O)N1CCC[C@H]1C(=O)O
Inquiry: Return label of the item with the larger BR (beating rate), % change from baseline. Candidates: 1 , 2 . Pick one and reply with its label.
Reply text: 1
(1: 7%, 2: -7%)
